Measured normalized growth by item
- Method notes: chemical genetic growth profiling, strain panel (AID 1159580);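 further: tested at 20 µM; growth read once vehicle control cultures reached saturation at 30 °C; 1 = growth at the plate median or of vehicle wells; lower values mean less growth of the strain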
- Measurement setup: S. cerevisiae deletion strains, growth OD, locus YOL012C, strain htz1
Among all 5,500 compounds or so, about 2,000 (36%) were called active. Inconclusive results (about 18%) are left out. This is one part of the list.
Measurement label: normalized growth

Molecule: COc1cc(OC)c2c(c1)O[C@H](c1cc(OC)c(OC)c(OC)c1)[C@H](OC(=O)c1cc(OC)c(OC)c(OC)c1)C2
Reported result: 0.884
--
Molecule: CN(C)CCN(Cc1ccccc1)c1ccccn1
Reported result: 1.43
--
Molecule: CCCCCCCCCCC[C@@H](C[C@H]1OC(=O)[C@H]1CCCCCC)OC(=O)[C@@H](CC(C)C)NC=O
Reported result: 1.37
--
Molecule: N[C@@H](Cc1ccc(N(CCCl)CCCl)cc1)C(=O)O
Reported result: 0.837
--
Molecule: O=S(=O)(O)CCS
Reported result: 1.22
--
Molecule: COc1ccc(-c2coc3cc(O)ccc3c2=O)c(OC)c1O
Reported result: 0.858
--
Molecule: CCCCC[C@H]1C(=O)O[C@H](C)[C@H](NC(=O)c2cccc(NC=O)c2O)C(=O)O[C@@H](C)[C@@H]1OC(=O)CC(C)C
Reported result: 0.619
--
Molecule: C[C@@H]1CC(Cl)CC[C@H]1C(=O)OC(C)(C)C (some centres undefined)
Reported result: 0.765
--
Molecule: C[n+]1c2cc(N)ccc2cc2ccc(N)cc21
Reported result: 0.393
--
Molecule: NS(=O)(=O)c1cc2c(cc1Cl)NC=NS2(=O)=O
Reported result: 0.596
--
Molecule: CCN1CCCC(OC(=O)C(c2ccccc2)c2ccccc2)C1 (centres undefined)
Reported result: 1.06
--
Molecule: Oc1cc(O)c2c(c1)O[C@H](c1ccc(O)c(O)c1)[C@@H](O)C2
Reported result: 1.07
--
Molecule: Oc1cc(O)c2c(c1)O[C@H](c1ccc(O)c(O)c1)[C@H](O)C2
Reported result: 1.18
--
Molecule: O=C(O)CCCc1ccccc1
Reported result: 1.62
--
Molecule: CN1CCC(OC(c2ccccc2)c2ccccc2)CC1
Reported result: 0.957
--
Molecule: C/C=C(\C)C(=O)O[C@H]1C[C@@H](OC(C)=O)[C@@]2(C(=O)OC)CO[C@@H]3C2[C@]12CO[C@](O)(C(=O)OC)[C@H]2[C@](C)(C12O[C@@]1(C)[C@H]1C[C@@H]2OC2OC=C[C@@]21O)[C@@H]3O (some centres undefined)
Reported result: 0.809
--
Molecule: C=C[C@@](C)(O)CCC1C(=C)C[C@H](O)C2C(C)(C)CCCC12C (some centres undefined)
Reported result: 1.27
--
Molecule: COc1ccc(-c2coc3cc(O)ccc3c2=O)cc1
Reported result: 0.948
--
Molecule: O=C1c2ccc(O)cc2O[C@H](c2cc(O)c(O)c(O)c2)[C@H]1O
Reported result: 0.815
--
Molecule: NCCC(O)C(=O)NC1CC(N)C(OC2OC(CN)C(O)C(O)C2N)C(OC2OC(CO)C(O)C2O)C1O (centres undefined)
Reported result: 0.88
--
Molecule: CCCCNC(=O)NS(=O)(=O)c1ccc(C)cc1
Reported result: 1.12
--
Molecule: Oc1cc(O)c2c(c1)OC(c1cc(O)c(O)c(O)c1)C(O)C2c1c(O)cc(O)c2c1OC(c1cc(O)c(O)c(O)c1)C(O)C2c1c(O)cc(O)c2c1OC(c1cc(O)c(O)c(O)c1)C(O)C2 (centres undefined)
Reported result: 0.566
--
Molecule: O=C1NCC2(CCN(CCc3ccccc3)CC2)O1
Reported result: 0.911
--
Molecule: C[C@H]1COc2c(N3CCN(C)CC3)c(F)cc3c(=O)c(C(=O)O)cn1c23
Reported result: 0.78

The measurements presented in this section are drawn from PubChem BioAssay AID1159580.
